# ASSAY_NOTES: UV-Vis absorption of chromenoquinoline dye labeled ffA nucleotides
# Assay type: physicochemical
OUTCOME_MEASURE: UV-VIS λmax (nm)
Give the quantity in nm, number only.

COc1cc2cc3c([n+](C)c2cc1OC)-c1cc2c(cc1OC3)N(CCCC(=O)NCCCCCNC(=O)c1cccc(OCC(N=[N+]=[N-])OCC(=O)NCC#Cc3cn([C@H]4CC(OCN=[N+]=[N-])[C@@H](COP(=O)(O)OP(=O)(O)OP(=O)(O)O)O4)c4ncnc(N)c34)c1)CCC2 (stereo partly drawn) ... 500
COc1cc2c(cc3c([n+]2C)-c2cc4c(cc2OC3)N(CCCC(=O)NCCCCCNC(=O)c2cccc(OCC(N=[N+]=[N-])OCC(=O)NCC#Cc3cn([C@H]5CC(OCN=[N+]=[N-])[C@@H](COP(=O)(O)OP(=O)(O)OP(=O)(O)O)O5)c5ncnc(N)c35)c2)CCC4)c(OC)c1OC (stereo partly drawn) ... 500

Item: CCN(CC)c1ccc2c(c1)OCc1cc3cc(CC(=O)NCCNC(=O)c4cccc(OCC(N=[N+]=[N-])OCCOCC(=O)NCC#Cc5cn([C@H]6CC(OCN=[N+]=[N-])[C@@H](COP(=O)(O)OP(=O)(O)OP(=O)(O)O)O6)c6ncnc(N)c56)c4)ccc3[n+](C)c1-2 (stereo partly drawn) | UV-VIS λmax: 495

Input C=CCOCOC1C[C@H](n2cc(/C=C/CNC(=O)COC(COc3cccc(C(=O)NCCCCCNC(=O)CCCN4CCCc5cc6c(cc54)OCc4cc5cc(OC)c(OC)cc5[n+](C)c4-6)c3)OCC=C)c3c(N)ncnc32)O[C@@H]1COP(=O)(O)OP(=O)(O)OP(=O)(O)O (stereo partly drawn) . Output UV-VIS λmax: 500

# compound Cc1ccc2c(c1)cc1c([n+]2C)-c2cc3c(cc2OC1)N(CCCC(=O)NCCNC(=O)c1cccc(OCC(N=[N+]=[N-])OCCOCC(=O)NCC#Cc2cn([C@H]4CC(OCN=[N+]=[N-])[C@@H](COP(=O)(O)OP(=O)(O)OP(=O)(O)O)O4)c4ncnc(N)c24)c1)CCC3 (stereo partly drawn) ; its UV-VIS λmax = 500

The value of UV-VIS λmax measured for the compound COc1ccc2c(c1)cc1c([n+]2C)-c2cc3c(cc2OC1)N(CCCC(=O)NCCNC(=O)c1cccc(OCC(N=[N+]=[N-])OCCOCC(=O)NCC#Cc2cn([C@H]4CC(OCN=[N+]=[N-])[C@@H](COP(=O)(O)OP(=O)(O)OP(=O)(O)O)O4)c4ncnc(N)c24)c1)C(C)(C)CC3C (stereo partly drawn) turned out to be 501

UV-VIS λmax measured on C=CCOCOC1C[C@H](n2cc(C#CCNC(=O)COC(COc3cccc(C(=O)NCCCCCNC(=O)CCCN4CCCc5cc6c(cc54)OCc4cc5cc(OC)c(OC)cc5[n+](C)c4-6)c3)OCC=C)c3c(N)ncnc32)O[C@@H]1COP(=O)(O)OP(=O)(O)OP(=O)(O)O (stereo partly drawn) = 500

Entry COc1ccc2c(c1)cc1c([n+]2C)-c2cc3c(cc2OC1)N(CCCC(=O)NCCNC(=O)c1cccc(OCC(N=[N+]=[N-])OCCOCC(=O)NCC#Cc2cn([C@H]4CC(OCN=[N+]=[N-])[C@@H](COP(=O)(O)OP(=O)(O)OP(=O)(O)O)O4)c4ncnc(N)c24)c1)CCC3 (stereo partly drawn) , UV-VIS λmax reported as 503

Briefly, UV-VIS λmax measured for Cc1cc2cc3c([n+](C)c2cc1C)-c1cc2c(cc1OC3)N(CCCC(=O)NCCCCCNC(=O)c1cccc(OCC(N=[N+]=[N-])OCC(=O)NCC#Cc3cn([C@H]4CC(OCN=[N+]=[N-])[C@@H](COP(=O)(O)OP(=O)(O)OP(=O)(O)O)O4)c4ncnc(N)c34)c1)CCC2 (stereo partly drawn) : 500

---

# ASSAY_NOTES: Fluorescence emission of chromenoquinoline dye labeled ffA nucleotides
# Format: physicochemical
OUTCOME_MEASURE: Fluorescence em. λmax (nm)
// units = nm; emit number, no label

Cc1ccc2c(c1)cc1c([n+]2C)-c2cc3c(cc2OC1)N(CCCC(=O)NCCNC(=O)c1cccc(OCC(N=[N+]=[N-])OCCOCC(=O)NCC#Cc2cn([C@H]4CC(OCN=[N+]=[N-])[C@@H](COP(=O)(O)OP(=O)(O)OP(=O)(O)O)O4)c4ncnc(N)c24)c1)CCC3 (stereo partly drawn) ... 582
Cc1cc2cc3c([n+](C)c2cc1C)-c1cc2c(cc1OC3)N(CCCC(=O)NCCCCCNC(=O)c1cccc(OCC(N=[N+]=[N-])OCC(=O)NCC#Cc3cn([C@H]4CC(OCN=[N+]=[N-])[C@@H](COP(=O)(O)OP(=O)(O)OP(=O)(O)O)O4)c4ncnc(N)c34)c1)CCC2 (stereo partly drawn) ... 578
CCN(CC)c1ccc2c(c1)OCc1cc3cc(CC(=O)NCCNC(=O)c4cccc(OCC(N=[N+]=[N-])OCCOCC(=O)NCC#Cc5cn([C@H]6CC(OCN=[N+]=[N-])[C@@H](COP(=O)(O)OP(=O)(O)OP(=O)(O)O)O6)c6ncnc(N)c56)c4)ccc3[n+](C)c1-2 (stereo partly drawn) ... 574
COc1ccc2c(c1)cc1c([n+]2C)-c2cc3c(cc2OC1)N(CCCC(=O)NCCNC(=O)c1cccc(OCC(N=[N+]=[N-])OCCOCC(=O)NCC#Cc2cn([C@H]4CC(OCN=[N+]=[N-])[C@@H](COP(=O)(O)OP(=O)(O)OP(=O)(O)O)O4)c4ncnc(N)c24)c1)C(C)(C)CC3C (stereo partly drawn) ... 585
COc1cc2c(cc3c([n+]2C)-c2cc4c(cc2OC3)N(CCCC(=O)NCCCCCNC(=O)c2cccc(OCC(N=[N+]=[N-])OCC(=O)NCC#Cc3cn([C@H]5CC(OCN=[N+]=[N-])[C@@H](COP(=O)(O)OP(=O)(O)OP(=O)(O)O)O5)c5ncnc(N)c35)c2)CCC4)c(OC)c1OC (stereo partly drawn) ... 583

Sure, the documented Fluorescence em. λmax for C=CCOCOC1C[C@H](n2cc(/C=C/CNC(=O)COC(COc3cccc(C(=O)NCCCCCNC(=O)CCCN4CCCc5cc6c(cc54)OCc4cc5cc(OC)c(OC)cc5[n+](C)c4-6)c3)OCC=C)c3c(N)ncnc32)O[C@@H]1COP(=O)(O)OP(=O)(O)OP(=O)(O)O (stereo partly drawn) is 578

Fluorescence em. λmax for COc1ccc2c(c1)cc1c([n+]2C)-c2cc3c(cc2OC1)N(CCCC(=O)NCCNC(=O)c1cccc(OCC(N=[N+]=[N-])OCCOCC(=O)NCC#Cc2cn([C@H]4CC(OCN=[N+]=[N-])[C@@H](COP(=O)(O)OP(=O)(O)OP(=O)(O)O)O4)c4ncnc(N)c24)c1)CCC3 (stereo partly drawn) is 590

Looking up COc1cc2cc3c([n+](C)c2cc1OC)-c1cc2c(cc1OC3)N(CCCC(=O)NCCCCCNC(=O)c1cccc(OCC(N=[N+]=[N-])OCC(=O)NCC#Cc3cn([C@H]4CC(OCN=[N+]=[N-])[C@@H](COP(=O)(O)OP(=O)(O)OP(=O)(O)O)O4)c4ncnc(N)c34)c1)CCC2 (stereo partly drawn) , I found its Fluorescence em. λmax recorded as 578

Looking up C=CCOCOC1C[C@H](n2cc(C#CCNC(=O)COC(COc3cccc(C(=O)NCCCCCNC(=O)CCCN4CCCc5cc6c(cc54)OCc4cc5cc(OC)c(OC)cc5[n+](C)c4-6)c3)OCC=C)c3c(N)ncnc32)O[C@@H]1COP(=O)(O)OP(=O)(O)OP(=O)(O)O (stereo partly drawn) , I see its Fluorescence em. λmax listed as 578
